The measured values listed here are drawn from PubChem BioAssay (NCATS).

Experiment: qHTS for differential inhibitors of proliferation of Plasmodium falciparum line GB4 (AID 1816);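 also: parasite growth measured after 72 h incubation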
Details: Plasmodium falciparum GB4 proliferation inhibition; series mostly up to 28.7 µM
Results filed as inconclusive are left out. Calls of active or inactive are those of the source. Calls follow the shape of the dose curve; as a rule, active = well fitted curve in the direction sought with a large enough effect; inconclusive = small, poorly fitted or top-dose-only effect, or another doubt; inactive = no such curve, though single readings can be large or run the other way.
Answer with one of the outcomes class 1 = active, class 0 = inactive

IN: Write down the call the test reported for this compound. Item: `COc1cc(C=C(C#N)C#N)cc(O)c1O`
OUT: class 1

IN: Write down the call the test reported for this compound. Item: C[C@]12C=CC(=O)C=C1CCC1C2=CC[C@]2(C)[C@@H](C(=O)CN3CCN(c4cc(N5CCCC5)nc(N5CCCC5)n4)CC3)CC[C@@H]12 (stereo not given in full)
OUT: class 1

IN: Write down the call the test reported for this compound. Item: `NCC#Cc1ccccc1`
OUT: class 0

IN: Write down the call the test reported for this compound. Item: C[C@]12CC[C@H](OS(=O)(=O)O)CC1=CCC1C2CC[C@]2(C)C(=O)CC[C@@H]12 (stereo not given in full)
OUT: class 0

IN: Write down the call the test reported for this compound. Item: CC12CCC3C(CCC4=C(O)C(=O)CCC43C)C1CCC2=O (stereo not given)
OUT: class 0

====

Test: Primary qHTS to identify inhibitors of SARS-CoV-2 cell entry (AID 1645846); also: nearly all actives have a fitted effect of over 45% in size
Conditions: SARS-CoV-2 pseudovirus cell entry assay, luminescence; at 57.1 µM (top of the series) unless noted
Records with an inconclusive call do not appear.
quantity: activity change, negative = inhibition (%)
Give just the number in %; leave the unit off.

IN: Could you tell me which activity change, negative = inhibition is on file for `Cc1onc(-c2c(F)cccc2Cl)c1C(=O)N[C@@H]1C(=O)N2[C@@H]1SC(C)(C)[C@H]2C(=O)O` ?
OUT: -29.1

IN: Could you tell me which activity change, negative = inhibition is on file for C=C[C@H]1CN2CCC1C[C@@H]2[C@@H](O)c1ccnc2ccccc12 (some centres undefined) ?
OUT: -29.6

IN: Could you tell me which activity change, negative = inhibition is on file for `O=C(N[C@H]1CCC[C@H](CO)C1)C1CCN(c2nc3cc(Cl)c(-c4ccc(Cl)cc4)cc3o2)CC1` ?
OUT: -9.89

IN: Could you tell me which activity change, negative = inhibition is on file for `CC1(C)C[C@H]1C(=O)N/C(=C\CCCCSC[C@@H](N)C(=O)O)C(=O)O` ?
OUT: -28.6

IN: Could you tell me which activity change, negative = inhibition is on file for `C=Cc1cc(O)cc2nc(-c3ccc(O)c(F)c3)oc12` ?
OUT: -0.0201

IN: Could you tell me which activity change, negative = inhibition is on file for `Cc1c(NC(=O)c2cc(C(N)=O)nc3cc(F)ccc23)c(C(F)(F)F)nn1Cc1ccc(C(C)(C)C)cc1` ?
OUT: -95.1

IN: Could you tell me which activity change, negative = inhibition is on file for `CC(=O)c1ccc2c(c1)N(CCCN1CCN(CCO)CC1)c1ccccc1S2` ?
OUT: -25.7

IN: Could you tell me which activity change, negative = inhibition is on file for `O=C(c1c(F)ccc(NS(=O)(=O)N2CC[C@@H](F)C2)c1F)c1c[nH]c2ncc(-c3cnc(C4CC4)nc3)cc12` ?
OUT: -17.3

IN: Could you tell me which activity change, negative = inhibition is on file for `CC1=C(C(=O)O)N2C(=O)[C@@H](NC(=O)[C@H](N)C3=CCC=CC3)[C@@H]2SC1` ?
OUT: -32.9

IN: Could you tell me which activity change, negative = inhibition is on file for `C[C@H]1CN(C2COC2)CCN1c1ccc(Nc2cc(-c3ccnc(N4CCn5c(cc6c5CC(C)(C)C6)C4=O)c3CO)cn(C)c2=O)nc1` ?
OUT: -10.4

IN: Could you tell me which activity change, negative = inhibition is on file for `Nc1nc(F)nc2c1ncn2[C@@H]1O[C@H](COP(=O)(O)O)[C@@H](O)[C@@H]1O` ?
OUT: 0.103

IN: Could you tell me which activity change, negative = inhibition is on file for `CC/C(=C(/c1ccc(O)cc1)c1ccc(OCCNC)cc1)c1ccccc1` ?
OUT: -36.5

IN: Could you tell me which activity change, negative = inhibition is on file for `C=C1/C(=C/C=C2\CCC[C@]3(C)[C@@H]([C@H](C)/C=C/C=C/C(O)(CC)CC)CC[C@@H]23)C[C@@H](O)C[C@@H]1O` ?
OUT: -5.54

IN: Could you tell me which activity change, negative = inhibition is on file for `C[C@H](Nc1nc(N[C@H](C)C(F)(F)F)nc(-c2cccc(Cl)n2)n1)C(F)(F)F` ?
OUT: -8.78

IN: Could you tell me which activity change, negative = inhibition is on file for `CN(C)c1cccc(-c2c3c(=O)n(-c4ccccc4Cl)[nH]c3cc(=O)n2C)c1` ?
OUT: -19.6

====

Experiment: Primary qHTS for inhibitors of MERS-S pseudo-typed particle cell entry (AID 1479149); also: nearly all actives have a fitted effect of over 60% in size
Conditions: MERS-S pseudotyped particle entry, luciferase; series mostly up to 57.1 µM
Records with an inconclusive call do not appear. The source made the active and inactive calls. The call rests on the fitted dose curve.

compound structure: CNC(=O)c1c(I)c(C(=O)NCC(=O)Nc2c(I)c(C(=O)O)c(I)c(C(=O)NCCO)c2I)c(I)c(N(C)C(C)=O)c1I
outcome: inactive

compound structure: CO[C@@H]1C[C@H](O[C@H]2[C@H](C)[C@H](O[C@@H]3O[C@@H](C)C[C@@H](N(C)C)[C@H]3OC(C)=O)[C@H](C)C[C@]3(CO3)C(=O)[C@H](C)[C@H](OC(C)=O)[C@H](C)[C@H](C)OC(=O)[C@@H]2C)O[C@H](C)[C@H]1OC(C)=O
outcome: inactive

compound structure: O=C(O)c1cc(=O)c2c3nc4ccccc4oc-3cc(=O)c2[nH]1
outcome: inactive

====

Tested on: P93_24
Assay: qHTS profiling for inhibitors of Plasmodium falciparum proliferation (AID 504749); also: nearly all actives have a fitted effect of over 60% in size
Details: P. falciparum in erythrocytes, SYBR Green DNA, 72 h; series mostly up to 28.7 µM
Records with an inconclusive call do not appear. Calls of active or inactive are those of the source. The call rests on the fitted dose curve; in most records, active means well fitted inhibition curve with a large enough effect; inconclusive means small, poorly fitted or top-dose-only effect; inactive means flat fitted curve, though single readings scatter.

molecule: CNC(C)[C@@H](O)c1ccc(O)cc1 (stereo partly drawn)
outcome: inactive

molecule: CC[C@@]1(c2ccc(N)cc2)CCC(=O)NC1=O
outcome: inactive

molecule: C[C@]12CC[C@H](O)CC1=CCC1C2CC[C@]2(C)C(=O)CC[C@@H]12 (stereo partly drawn)
outcome: inactive

====

System: AA1029
Test: qHTS profiling for inhibitors of Plasmodium falciparum proliferation (AID 504749); also: nearly all actives have a fitted effect of over 60% in size
Details: P. falciparum in erythrocytes, SYBR Green DNA, 72 h; series mostly up to 28.7 µM
Results filed as inconclusive are left out. Calls of active or inactive are those of the source. The call rests on the fitted dose curve; in most records, active means well fitted inhibition curve with a large enough effect; inconclusive means small, poorly fitted or top-dose-only effect; inactive means flat fitted curve, though single readings scatter.
Answer with one of the outcomes true = active, false = inactive

IN: Write down the call the test reported for this compound. Item: `C#CCN(C)[C@@H](C)Cc1ccccc1`
OUT: false

IN: Write down the call the test reported for this compound. Item: C[N+]1(C)[C@@H]2CC[C@H]1CC(OC(=O)[C@@H](CO)c1ccccc1)C2 (stereo partly specified)
OUT: false

IN: Write down the call the test reported for this compound. Item: ClC1=C(Cl)C2(Cl)C3C4CC(C5OC45)C3C1(Cl)C2(Cl)Cl (stereo unspecified)
OUT: false

IN: Write down the call the test reported for this compound. Item: COc1cc2c(cc1OC)[C@@]13CCN4CC5=CCOC6CC(=O)N2C1[C@H]6[C@@H]5C[C@@H]43 (stereo partly specified)
OUT: false

IN: Write down the call the test reported for this compound. Item: `N[C@H]1C[C@H]1c1ccccc1`
OUT: false

IN: Write down the call the test reported for this compound. Item: O=[As]O[As]=O (stereo unspecified)
OUT: true

IN: Write down the call the test reported for this compound. Item: `C[C@H](NC(C)(C)C)C(=O)c1cccc(Cl)c1`
OUT: false

IN: Write down the call the test reported for this compound. Item: `C[C@@H]1O[C@H](O[C@@H]2C=C3CC[C@H]4[C@@H](CC[C@]5(C)[C@@H](c6ccc(=O)oc6)CC[C@]45O)[C@@]3(C)CC2)[C@@H](O)[C@H](O)[C@@H]1O`
OUT: false

IN: Write down the call the test reported for this compound. Item: C=CC1CN2CCC1CC2C(OC(=O)OCC)c1ccnc2ccc(OC)cc12 (stereo unspecified)
OUT: true

IN: Write down the call the test reported for this compound. Item: C[C@]12CC[C@H](O)CC1=CCC1C2CC[C@]2(C)C(=O)CC[C@@H]12 (stereo partly specified)
OUT: false

IN: Write down the call the test reported for this compound. Item: `C[C@@]12CCC(=O)C=C1C=C[C@H]1[C@H]3CC[C@](O)(CCC(=O)O)[C@]3(C)CC[C@@H]12`
OUT: false

====

Biological target: M-phase phosphoprotein 8 (Homo sapiens)
Assay: qHTS Validation Assay for Inhibitors for MPP8 Chromodomain Interactions with Methylated Histone Tails (AID 488949); also: nearly all actives have a fitted effect of over 55% in size
Settings: AlphaScreen MPP8 binding to H3K9me3 peptide; series mostly up to 114 µM
Results filed as inconclusive are left out. The source made the active and inactive calls. Calls come from the whole dose curve; as a rule, active = well fitted inhibition curve with a large enough effect; inconclusive = small, poorly fitted or top-dose-only effect; inactive = no such curve, though single readings can be large or run the other way.
Answer with one of the outcomes active, inactive

IN: Write down the call the test reported for this compound. Item: `COc1cc(C[C@@H](C)N)c(OC)cc1I`
OUT: inactive

IN: Write down the call the test reported for this compound. Item: CC(C)(O)C1C2OC(=O)C1[C@]1(O)C[C@H]3O[C@]34C(=O)O[C@H]2[C@]14C (stereo partly drawn) (tested in a mixture with another compound)
OUT: inactive

IN: Write down the call the test reported for this compound. Item: CCCN1CCc2cccc3c2C1Cc1ccc(O)c(O)c1-3 (stereo not drawn)
OUT: active

IN: Write down the call the test reported for this compound. Item: `NCC#Cc1ccccc1`
OUT: inactive

IN: Write down the call the test reported for this compound. Item: NC(Cn1ccc(=O)[nH]c1=O)C(=O)O (stereo not drawn)
OUT: inactive

IN: Write down the call the test reported for this compound. Item: `CCN1C[C@]2(C)CC[C@H](O)[C@@]34[C@@H]5C[C@@H]6[C@@H](OC)C[C@@](O)(C5[C@H]6O)[C@@H](C[C@@H]23)[C@@H]14`
OUT: inactive

IN: Write down the call the test reported for this compound. Item: `S=C(S)N1CCCC1`
OUT: inactive

IN: Write down the call the test reported for this compound. Item: `CCc1c(C(=O)OC)ncc2[nH]c3cc(OC)c(OC)cc3c12`
OUT: inactive

IN: Write down the call the test reported for this compound. Item: CCCC[N+]1(C)C2CC(OC(=O)C(CO)c3ccccc3)CC1C1OC12 (stereo not drawn)
OUT: inactive

IN: Write down the call the test reported for this compound. Item: `COc1cc(C=C(C#N)C#N)cc(O)c1O`
OUT: active

IN: Write down the call the test reported for this compound. Item: CC12CCC3C(CCC4=C(O)C(=O)CCC43C)C1CCC2=O (stereo not drawn)
OUT: inactive

IN: Write down the call the test reported for this compound. Item: C[C@]12CC[C@H](O)CC1=CCC1C2CC[C@]2(C)C(=O)CC[C@@H]12 (stereo partly drawn)
OUT: inactive

IN: Write down the call the test reported for this compound. Item: `CCNC(=O)[C@H]1O[C@@H](n2cnc3c(N)ncnc32)[C@H](O)[C@H]1O`
OUT: inactive

IN: Write down the call the test reported for this compound. Item: C=CCN1CCc2cccc3c2C1Cc1ccc(O)c(O)c1-3 (stereo not drawn)
OUT: active

IN: Write down the call the test reported for this compound. Item: C[N+]1(C)C2CC(OC(=O)C(CO)c3ccccc3)CC1C1OC12 (stereo not drawn)
OUT: inactive

IN: Write down the call the test reported for this compound. Item: C#CCN(C)C(C)Cc1ccccc1 (stereo not drawn)
OUT: inactive

IN: Write down the call the test reported for this compound. Item: CN1CCC23CCCC[C@H]2C1Cc1ccc(O)cc13 (stereo partly drawn)
OUT: inactive

IN: Write down the call the test reported for this compound. Item: `NNCc1cccc(O)c1`
OUT: inactive
